# System: rat 5α-reductase
# Assay overview: Assay of Rat 5α-reductase Inhibition
# Assay type: biochemical, rat (Sprague-Dawley)
# Run conditions: 10^-8 M test compound; rat prostate 5α-reductase, 1 μM [14C] testosterone, pH 6.5, 37° C., 15 to 30 minutes
# Excerpt: The prostatic lobes of a mature male rat (body weight 350-450 g, Sprague-Dawley strain) were cut into small pieces with scissors. […]
Endpoint name: Rat 5α-reductase inhibiting activity: Inhibiting activity (%)

1) COc1ccc(C(C)(C)NC(=O)[C@H]2CC[C@H]3[C@@H]4CC[C@H]5NC(=O)C=C[C@]5(C)[C@H]4CC[C@]23C)cc1; 73.2
2) C[C@]12C=CC(=O)N[C@@H]1CC[C@@H]1[C@@H]2CC[C@]2(C)[C@@H](C(=O)NN(c3ccccc3)c3ccccc3)CC[C@@H]12; 80.0
3) CN1C(=O)CC[C@@]2(C)C1=CC[C@H]1[C@@H]3CC[C@H](C(=O)NC(C)(C)c4ccccc4)[C@@]3(C)CC[C@@H]12; 72.3

====

# Tested on: rat 5α-reductase
# Assay overview: Assay of Rat 5α-reductase Inhibition
# Type: biochemical, rat (Sprague-Dawley)
# Run conditions: 10^-8 M test compound; rat prostate 5α-reductase, 1 μM [14C] testosterone, pH 6.5, 37° C., 15 to 30 minutes
Endpoint name: Rat 5α-reductase inhibiting activity: Inhibiting activity (%)

1) CN1C(=O)CC[C@]2(C)[C@H]3CC[C@]4(C)[C@@H](C(=O)NC(C)(C)c5ccccc5)CC[C@H]4[C@@H]3CC[C@@H]12 [Example No. 40]; 88.6
2) C[C@]12C=CC(=O)N[C@@H]1CC[C@@H]1[C@@H]2CC[C@]2(C)[C@@H](C(=O)NC(Cc3ccccc3)c3ccccc3)CC[C@@H]12 (stereo partly drawn) [Example No. 8]; 74.6
3) Cc1ccc(C[C@H](NC(=O)[C@H]2CC[C@H]3[C@@H]4CC[C@H]5NC(=O)CC[C@]5(C)[C@H]4CC[C@]23C)c2ccccc2)cc1 [Example No. 62]; 90.1
4) CN1C(=O)CC[C@]2(C)[C@H]3CC[C@]4(C)[C@@H](C(=O)NC(C)(c5ccccc5)c5ccccc5)CC[C@H]4[C@@H]3CC[C@@H]12 [Example No. 26]; 87.3
5) C[C@]12CC[C@H]3[C@@H](CC=C4NC(=O)CC[C@@]43C)[C@@H]1CC[C@@H]2C(=O)NC(Cc1ccccc1)c1ccccc1 (stereo partly drawn) [Example No. 12]; 78.4

P = C[C@]12CCC(=O)N[C@@H]1CC[C@@H]1[C@@H]2CC[C@]2(C)[C@@H](C(=O)N(Cc3ccccc3)Cc3ccccc3)CC[C@@H]12 [Example No. 4]
Q = CC(C)(C)NC(=O)C1CCC2C3CCC4NC(=O)C=CC4(C)C3CCC12C (stereo not drawn) [Compound A2, reference compound]
Between the two listed entries P and Q , which has its Rat 5α-reductase inhibiting activity: Inhibiting activity (%) at the higher number? Write the label of whichever entry you select. P
(P: 74.1%, Q: 30.0%)

====

# System: rat 5α-reductase
# Assay overview: Assay of Rat 5α-reductase Inhibition
# Type: biochemical, rat (Sprague-Dawley)
# Run conditions: 10^-8 M test compound; rat prostate 5α-reductase, 1 μM [14C] testosterone, pH 6.5, 37° C., 15 to 30 minutes
Endpoint name: Rat 5α-reductase inhibiting activity: Inhibiting activity (%)

1. C[C@]12CCC(=O)N[C@@H]1CC[C@@H]1[C@@H]2CC[C@]2(C)[C@@H](C(=O)NC(Cc3ccccc3)c3ccccc3)CC[C@@H]12 (some centres unmarked) [Example No. 3]; 89.1
2. CC(C)(NC(=O)[C@H]1CC[C@H]2[C@@H]3CC[C@H]4NC(=O)CC[C@]4(C)[C@H]3CC[C@]12C)c1ccccc1 [Example No. 37]; 82.2
3. CN1C(=O)CC[C@]2(C)[C@H]3CC[C@]4(C)[C@@H](C(=O)NC(c5ccccc5)c5ccccc5)CC[C@H]4[C@@H]3CC[C@@H]12 [Example No. 20]; 86.7
4. C[C@]12C=CC(=O)N[C@@H]1CC[C@@H]1[C@@H]2CC[C@]2(C)[C@@H](C(=O)N[C@H](c3ccccc3)[C@@H](O)c3ccccc3)CC[C@@H]12 [Example No. 73]; 80.5
5. C[C@]12CCC(=O)N[C@@H]1CC[C@@H]1[C@@H]2CC[C@]2(C)[C@@H](C(=O)NC(c3ccccc3)c3ccccc3)CC[C@@H]12 [Example No. 1]; 89.2
